- TARGET SYSTEM: Gal(b1-4)GlcNAc(b1-2)Man(a1-3)[Gal(b1-4)GlcNAc(b1-2)Man(a1-6)]Man(b1-4)GlcNAc(b1-4)[Fuc(a1-6)]GlcNAc
- METHOD: glycan array binding signal (z-score within array); higher = stronger binding
- TEST CONTEXT: glycan notation: IUPAC condensed, linker removed
This excerpt belongs to a sample that is enriched for the strongest signals.
MEASUREMENT NAME: glycan array binding signal (z-score)
Number, no unit, nothing else.

Below are worked cases with known answers.
Aap arpt (Staphylococcus epidermidis) (protein) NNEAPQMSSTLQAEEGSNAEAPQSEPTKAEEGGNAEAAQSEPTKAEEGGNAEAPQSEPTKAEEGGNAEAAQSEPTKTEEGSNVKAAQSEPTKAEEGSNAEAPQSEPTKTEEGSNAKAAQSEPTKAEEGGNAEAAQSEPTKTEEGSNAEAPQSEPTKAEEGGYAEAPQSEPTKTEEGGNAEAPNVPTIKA	0.746
AFL5 (Aspergillus fumigatus), Q4WB00 (protein) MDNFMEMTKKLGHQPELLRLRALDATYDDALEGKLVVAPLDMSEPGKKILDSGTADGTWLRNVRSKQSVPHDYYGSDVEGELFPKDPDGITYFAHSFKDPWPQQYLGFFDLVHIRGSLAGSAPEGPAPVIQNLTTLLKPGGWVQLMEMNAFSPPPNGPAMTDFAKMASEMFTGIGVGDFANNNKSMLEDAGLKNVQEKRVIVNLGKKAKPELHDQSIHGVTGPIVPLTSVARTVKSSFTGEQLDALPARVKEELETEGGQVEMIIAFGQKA	0.004
Eosinophil-derived neurotoxin (EDN) (Homo sapiens), P10153 (protein) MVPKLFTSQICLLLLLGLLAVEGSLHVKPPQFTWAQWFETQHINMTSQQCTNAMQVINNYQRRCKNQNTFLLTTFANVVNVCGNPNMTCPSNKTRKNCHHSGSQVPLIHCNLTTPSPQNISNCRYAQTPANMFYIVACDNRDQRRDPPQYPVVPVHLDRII	1.36

Now let's try a different one.
-- ask Fill in the blank: the reported glycan array binding signal (z-score) of BabA (Helicobacter pylori), O52269_HELPY (protein) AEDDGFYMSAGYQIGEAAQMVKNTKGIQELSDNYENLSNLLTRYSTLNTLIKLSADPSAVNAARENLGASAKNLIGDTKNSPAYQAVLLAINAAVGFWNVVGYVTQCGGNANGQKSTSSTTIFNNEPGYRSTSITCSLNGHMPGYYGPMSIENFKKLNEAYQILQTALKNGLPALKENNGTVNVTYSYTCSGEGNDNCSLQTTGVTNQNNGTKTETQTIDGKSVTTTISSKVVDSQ is ____.
-- reply 0.092
